- target-under-test: kappa opioid receptor (Homo sapiens)
- method-notes: GTPγS binding assay (G-protein activation)
- Assay type: biochemical
- experimental-setup: relative to U69,593 = 100% Emax
- Sequence (P41145 whole entry, the tested form may be a part): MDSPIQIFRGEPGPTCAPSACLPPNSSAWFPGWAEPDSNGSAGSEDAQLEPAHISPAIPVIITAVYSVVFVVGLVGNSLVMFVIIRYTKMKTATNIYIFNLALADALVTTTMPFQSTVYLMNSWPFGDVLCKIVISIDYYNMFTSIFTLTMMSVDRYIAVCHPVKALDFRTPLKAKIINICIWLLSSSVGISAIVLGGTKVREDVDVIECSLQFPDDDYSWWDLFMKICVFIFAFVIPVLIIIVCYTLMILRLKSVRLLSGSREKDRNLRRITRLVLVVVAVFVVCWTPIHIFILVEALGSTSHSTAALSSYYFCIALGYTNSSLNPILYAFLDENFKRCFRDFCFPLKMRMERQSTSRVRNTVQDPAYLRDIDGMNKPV
measurement-kind: GTPγS Emax (% U60)
The reply must contain the numeric value and, after it, the unit.

# lookup: GTPγS Emax (% U60) of Clc1ccc(CCc2nnc(-c3ccccn3)n2Cc2cccs2)c(Cl)c1
91 % U60

# lookup: GTPγS Emax (% U60) of Cc1ccc(CCCN(CCCc2ccco2)C(=O)c2ccccn2)cc1C(F)(F)F
88 % U60

# lookup: GTPγS Emax (% U60) of Cc1ccc(CCc2nnc(-c3ccccn3)n2Cc2ccco2)cc1C(F)(F)F
90 % U60

# lookup: GTPγS Emax (% U60) of Brc1cccc(CCc2nnc(-c3ccccn3)n2Cc2cccs2)c1
89 % U60

# lookup: GTPγS Emax (% U60) of Cc1ccc(CCc2nnc(-c3nccn3C)n2Cc2ccco2)cc1C(F)(F)F
92 % U60

# lookup: GTPγS Emax (% U60) of Cc1ccc(CCc2nnc(-c3ccccn3)n2Cc2cccnc2)cc1C(F)(F)F
90 % U60

# lookup: GTPγS Emax (% U60) of Fc1ccc(CCc2nnc(-c3ccccn3)n2Cc2cccs2)cc1
92 % U60

---

- target-under-test: kappa opioid receptor (Homo sapiens, UniProt P41145)
- method-notes: PathHunter DiscoverX β-arrestin2 recruitment (enzyme fragment complementation) assay
- Format: cell-based
- experimental-setup: relative to U69,593 = 100% Emax; ~ did not plateau at 100%
- Sequence (P41145 whole entry, the tested form may be a part): as above
- Sequence (P32121 whole entry partner, the tested form may be a part): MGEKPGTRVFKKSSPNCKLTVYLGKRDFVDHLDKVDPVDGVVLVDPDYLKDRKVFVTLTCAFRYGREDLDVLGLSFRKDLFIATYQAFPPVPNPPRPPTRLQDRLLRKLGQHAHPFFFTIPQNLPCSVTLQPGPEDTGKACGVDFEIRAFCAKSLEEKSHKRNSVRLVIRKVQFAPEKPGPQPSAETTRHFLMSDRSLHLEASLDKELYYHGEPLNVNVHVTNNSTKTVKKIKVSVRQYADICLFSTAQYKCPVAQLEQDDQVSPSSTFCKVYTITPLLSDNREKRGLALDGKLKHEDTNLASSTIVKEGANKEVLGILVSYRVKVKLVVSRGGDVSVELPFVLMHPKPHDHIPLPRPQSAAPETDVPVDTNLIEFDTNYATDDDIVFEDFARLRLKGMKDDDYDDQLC
measurement-kind: β-arrestin2 Emax (% U60)

# lookup: β-arrestin2 Emax (% U60) of Cc1ccc(CCc2nnc(-c3ccc4ccccc4n3)n2Cc2cccs2)cc1C(F)(F)F
~100 % U60

# lookup: β-arrestin2 Emax (% U60) of Cc1ccc(CCc2nnc(-c3ccccc3)n2Cc2cccs2)cc1C(F)(F)F
~100 % U60

# lookup: β-arrestin2 Emax (% U60) of Cc1ccc(/C=C/c2nnc(-c3nccn3C)n2Cc2nccs2)cc1C(F)(F)F
34 % U60

# lookup: β-arrestin2 Emax (% U60) of Cc1ccc(CCc2nnc(-c3ncccn3)n2Cc2cccs2)cc1C(F)(F)F
150 % U60

# lookup: β-arrestin2 Emax (% U60) of Cc1ccc(CCc2nnc(-c3ccccn3)n2Cc2ccccn2)cc1C(F)(F)F
125 % U60

# lookup: β-arrestin2 Emax (% U60) of Cc1ccc(CCc2nnc(-c3nccn3C)n2Cc2ccco2)cc1C(F)(F)F
112 % U60
